# tested.on: Human HDAC5 (Homo sapiens)
# Construct: full length with C-terminal His tag, MW=51.1 kDa; His (C); host or cells: baculovirus expression system
# Sequence (Q9UQL6 656-1122 limits assumed): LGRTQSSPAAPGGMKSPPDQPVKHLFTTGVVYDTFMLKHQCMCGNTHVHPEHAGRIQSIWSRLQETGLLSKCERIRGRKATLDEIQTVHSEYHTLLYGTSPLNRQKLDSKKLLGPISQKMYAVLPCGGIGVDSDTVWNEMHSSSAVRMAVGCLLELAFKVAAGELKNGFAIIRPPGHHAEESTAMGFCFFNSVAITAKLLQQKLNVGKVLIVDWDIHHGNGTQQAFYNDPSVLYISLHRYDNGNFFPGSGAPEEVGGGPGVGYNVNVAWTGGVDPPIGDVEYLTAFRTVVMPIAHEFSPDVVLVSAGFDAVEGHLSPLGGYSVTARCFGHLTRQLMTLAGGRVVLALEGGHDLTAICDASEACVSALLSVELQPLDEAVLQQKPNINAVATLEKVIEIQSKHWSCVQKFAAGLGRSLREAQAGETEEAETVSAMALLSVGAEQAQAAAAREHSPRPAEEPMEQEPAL
# experimental.protocol: HDAC5 biochemical assay, class IIa-specific substrate
# stated.conditions: read-out: HDAC Isoform IC50 (nM) 5
# Method: Activity against all zinc-dependent HDACs 1 to 11 was assessed by using an acetylated AMC-labeled peptide substrate. The substrate RHKK(Ac)AMC was used for HDAC1, HDAC2, HDAC3, HDAC6 and HDAC10; the substrate used for HDAC8 was RHK(Ac)K(Ac)AMC. Activity against the class IIa HDACs (HDAC4, 5, 7, 9) and HDAC11 was determined using a class IIa-specific substrate, BOC-Lys(trifluoroacetyl)-AMC (“Trifluoroacetyl Lysine”; see Lahm et al, 2007, PNAS, 104, 17335-17340). […]
# maps each entry to its IC50

{"compound": "Cn1cc(-c2ccc(N(Cc3ccc(-c4noc(C(F)(F)F)n4)s3)c3cnccn3)nn2)cn1 [Example DO]", "tested.on": "Human HDAC5 (Homo sapiens)", "result": "≤ 1000 nM"}
{"compound": "Cc1cc(N(Cc2ccc(-c3noc(C(F)(F)F)n3)s2)c2cnccn2)ncn1 [Example CG]", "tested.on": "Human HDAC5 (Homo sapiens)", "result": "≤ 1000 nM"}
{"compound": "FC(F)(F)c1nc(-c2ccc(CN(c3cnccn3)c3ccc(CN4CCOCC4)nn3)s2)no1 [Example FN]", "tested.on": "Human HDAC5 (Homo sapiens)", "result": "≤ 1000 nM"}
{"compound": "O=C(c1ccc(N(Cc2ccc(-c3noc(C(F)(F)F)n3)s2)c2cnccn2)nn1)N1CCC1 [Example FF]", "tested.on": "Human HDAC5 (Homo sapiens)", "result": "≤ 500 nM"}
{"compound": "COc1ccc(N(Cc2ccc(-c3noc(C(F)(F)F)n3)s2)c2cnccn2)nn1 [Example DG]", "tested.on": "Human HDAC5 (Homo sapiens)", "result": "≤ 1000 nM"}
{"compound": "CN(C)C(=O)c1ccc(N(Cc2ccc(-c3noc(C(F)(F)F)n3)s2)c2cnccn2)nc1 [Example AC]", "tested.on": "Human HDAC5 (Homo sapiens)", "result": "≤ 1000 nM"}
{"compound": "O=C(c1cnnc(N(Cc2ccc(-c3noc(C(F)(F)F)n3)s2)c2cnccn2)c1)N1CCC12COC2 [Example GF]", "tested.on": "Human HDAC5 (Homo sapiens)", "result": "≤ 500 nM"}

// moving on: another record for IC50
Could you please provide reported IC50 for Cn1ccc2nc(N(Cc3ccc(-c4noc(C(F)(F)F)n4)s3)c3cnccn3)cnc21 [Example BO] ? Thanks!
≤ 10000 nM

* * *

# tested.on: Human HDAC9 (Homo sapiens)
# Construct: amino acids 604-1066 with C-terminal His tag; His (C); host or cells: baculovirus expression system
# Sequence (Q9UKV0 604-1066 isoform Q9UKV0-5): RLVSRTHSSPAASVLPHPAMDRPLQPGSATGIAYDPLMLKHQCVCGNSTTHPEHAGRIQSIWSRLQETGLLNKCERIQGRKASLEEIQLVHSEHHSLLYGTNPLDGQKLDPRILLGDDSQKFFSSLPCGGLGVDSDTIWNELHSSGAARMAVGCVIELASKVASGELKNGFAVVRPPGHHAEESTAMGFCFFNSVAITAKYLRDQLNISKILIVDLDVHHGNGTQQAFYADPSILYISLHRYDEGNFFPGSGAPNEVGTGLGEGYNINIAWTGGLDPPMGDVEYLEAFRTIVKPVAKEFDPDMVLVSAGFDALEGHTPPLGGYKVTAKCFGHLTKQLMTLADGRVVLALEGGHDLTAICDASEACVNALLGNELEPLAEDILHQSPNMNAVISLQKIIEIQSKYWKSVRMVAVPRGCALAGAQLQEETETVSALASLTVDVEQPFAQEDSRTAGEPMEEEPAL
# experimental.protocol: HDAC9 biochemical assay, class IIa-specific substrate
# stated.conditions: read-out: HDAC Isoform IC50 (nM) 9
readout: IC50

{"smiles.structure": "COc1nccnc1N(Cc1ccc(-c2noc(C(F)(F)F)n2)s1)c1cnccn1", "result": "≤ 10000 nM"}
{"smiles.structure": "Cc1cncc(N(Cc2ccc(-c3noc(C(F)(F)F)n3)s2)c2cc(C(F)(F)F)cnn2)n1", "result": "> 10000 nM"}
{"smiles.structure": "FC(F)(F)c1cnnc(N(Cc2ccc(-c3noc(C(F)(F)F)n3)s2)c2cnccn2)c1", "result": "≤ 10000 nM"}
{"smiles.structure": "O=C(c1ccc(N(Cc2ccc(-c3noc(C(F)(F)F)n3)s2)c2cnccn2)nn1)N1C[C@@H]2C[C@H]1C[S@@+]2[O-]", "result": "≤ 1000 nM"}

Could you please provide reported IC50 for FC(F)(F)c1cnnc(N(Cc2ccc(-c3noc(C(F)(F)F)n3)s2)c2ccncn2)c1 ? Thanks!
≤ 10000 nM

Could you please provide reported IC50 for CN(C(=O)c1cnnc(N(Cc2ccc(-c3noc(C(F)(F)F)n3)s2)c2cnccn2)c1)S(C)(=O)=O ? Thanks!
≤ 10000 nM

Could you please provide reported IC50 for COc1nccc(N(Cc2ccc(-c3noc(C(F)(F)F)n3)s2)c2cnccn2)n1 ? Thanks!
≤ 10000 nM

Could you please provide reported IC50 for O=C(c1cnnc(N(Cc2ccc(-c3noc(C(F)(F)F)n3)s2)c2cnccn2)c1)N1CC(F)(F)C1 ? Thanks!
≤ 10000 nM

Could you please provide reported IC50 for COc1ccnc(N(Cc2ccc(-c3noc(C(F)(F)F)n3)s2)c2cnccn2)n1 ? Thanks!
≤ 10000 nM

These measurements were taken from patent US20210038607A1.
